These data points were gathered from the RNAGym collection of RNA variant scans (doi:10.7554/elife.90254).

B1: LINE1-mini (parent)
chain: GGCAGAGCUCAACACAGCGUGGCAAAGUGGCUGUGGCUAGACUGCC

- Variants of: B1
- test: self-cleavage, relative activity (ratio to wild type); higher = more cleavage; in vitro, sequencing; the parent is a self-cleaving ribozyme
measuredMetric: self-cleavage
Form rule: numeric answer, no unit written next to it.

GET /values?readout=self-cleavage&item= U32G C46A
0.2

C18A G44A , same question.
0.2

U20A G44U , same question.
0.2
